target: HLA-A*02:02; assay: IEDB peptide-MHC binding, purified MHC/competitive/radioactivity; filed as Kd, often an IC50 or EC50 that approximates it; bounds were set here for any values at or beyond the usual limits of such assays; details: source organism: Lassa virus Josiah
MEASURED METRIC: Kd (nM)
# value in nM; strip the unit string

Look up and state reported Kd for `LISIFLHLV`
11.1

====

target: HLA-A*01:01; test: IEDB peptide-MHC binding, purified MHC/direct/fluorescence; filed as Kd, often an IC50 or EC50 that approximates it; bounds were set here for any values at or beyond the usual limits of such assays; conditions: source organism: Ebola virus - Eckron (Zaire, 1976)
MEASURED METRIC: Kd

Write down the reported Kd (system: HLA-A*01:01) of `NSTHNTPVY`
≥ 20 µM
